Test: Annexin V-FITC/PI apoptosis flow cytometry, HDF
Format: cell-based, human
Conditions: human, HDF cells, HDF, 1.5 µM, 24 h; read-out: live/viable (Annexin V−PI−) cells
recorded.metric: viability at 24 h, 1.5 µM
Just the number plus its unit, please.

Lookup: So what does the record say about viability at 24 h, 1.5 µM for Nc1ccc(Oc2ccc3oc(-c4cccc(Oc5ccccc5)c4)cc(=O)c3c2)cc1 [APF-1] ?
Found: 92%

---

Tested on: human dermal fibroblasts (HDF)
Experiment: MTT cell viability assay, HDF
Format: cell-based
Settings: Fibroblast, 72 h
Experimental: The human non-small cell lung cancer (NSCLC) and Human Dermal Fibroblasts (HDF) cell lines were all obtained from the American Type Culture Collection (ATCC). […] The number of metabolically active cells, and thus cell viability, was assessed by a 3-(4,5-dimethylthiazol-2-yl)-2,5-diphenyltetrazolium bromide (MTT) assay as previously described. […] The relative cell viability (%) was calculated as (OD570 of treated samples/OD570 of untreated samples) × 100. […]
Measured IC50 accompanies every entry in the list below.
// return numeric value only (unit: µM, not printed)

Check out these entries, answers already filled in.
| molecule | target.of.assay | IC50 [µM] |
| --- | --- | --- |
| COc1cccc2c1C(=O)c1c(O)c3c(c(O)c1C2=O)C[C@@](O)(C(=O)CO)C[C@@H]3O[C@H]1C[C@H](N)[C@H](O)[C@H](C)O1 [Doxorubicin, reference compound] | human dermal fibroblasts (HDF) | 14 |
| Nc1ccc(Oc2ccc3oc(-c4ccc(Oc5ccccc5)cc4)cc(=O)c3c2)cc1 [APF-5] | human dermal fibroblasts (HDF) | 55 |
| Nc1ccc(Oc2ccc3oc(-c4cccc(Oc5ccccc5)c4)cc(=O)c3c2)cc1 [APF-1] | human dermal fibroblasts (HDF) | 62 |

Lookup: Return reported IC50; argument: Nc1ccc(Oc2ccc3c(=O)cc(-c4cccc(Oc5ccccc5)c4)oc3c2)cc1 [APF-3]
Found: 80

---

As shown below, each of these molecules has a reported logP value.
Test: LogP determination (1-octanol/PBS partition, UV-vis)
Type: physicochemical
Details: 1-octanol/PBS, pH 7.4, 1-octanol/PBS pH 7.4; read-out: Experimental LogP
Field format: numeric only.

| compound | logP |
| --- | --- |
| Nc1ccc(Oc2ccc3oc(-c4ccccc4)cc(=O)c3c2)cc1 | 2.3 |
| Nc1ccc(Oc2ccc3c(=O)cc(-c4cccc(Oc5ccccc5)c4)oc3c2)cc1 | 3.3 |

Lookup: What value of logP has been recorded for this entry: Nc1ccc(Oc2ccc3oc(-c4cccc(Oc5ccccc5)c4)cc(=O)c3c2)cc1
Found: 3.2

Lookup: I have this molecule here, Nc1ccc(Oc2cccc3oc(-c4cccc(Oc5ccccc5)c4)cc(=O)c23)cc1 , and I need its recorded logP.
Found: 2.9

Lookup: Query (molecule): Nc1ccc(Oc2ccc3oc(-c4ccc(Oc5ccccc5)cc4)cc(=O)c3c2)cc1 ; field requested: logP
Found: 3.2
